# experimental_target: cathepsin B (Bos taurus, UniProt P07688)
# Construct: gene CTSB; cathepsin B from bovine spleen (Sigma C6286)
# experiment: fluorogenic enzyme assay with Z-Arg-Arg-AMC, pH […] °C
# Type: biochemical
# stated_conditions: read-out: IC50
pIC50: −log10 of the molar value.
property_measured: pIC50

• CC[C@H]1C=CC(=O)O[C@H]1/C=C/[C@](O)(CCO)[C@H](O)C[C@@H](O)/C=C\C=C/[C@@H]1CCC[C@H](O)C1 = 5.35
• CC[C@H]1C=CC(=O)O[C@H]1/C=C/[C@](O)(CCN)[C@H](O)C[C@@H](O)/C=C\C=C/[C@@H]1CCC[C@H](O)C1 = 6.10

// provenance: paper PMC5852498
